tested on: Trypanosoma cruzi; test: Trypanocidal activity against Trypanosoma cruzi Y strain bloodstream trypomastigotes isolated from infected Swiss webster mouse cardiac cells assessed as reduction in parasite viability after 24 hrs by Celltiter-Glo assay; type: functional, organism-based
READOUT KIND: IC50

Challenge: Report IC50 for "Nc1c(C2=NCCN2)cnn1-c1ccc(Br)cc1" tested on Trypanosoma cruzi.
Response given: 52.3 µM

Provide IC50 for all items below, preserving their order.
1. Nc1c(C2=NCCCN2)cnn1-c1cc(Cl)cc(Cl)c1
2. Nc1c(C2=NCCN2)cnn1-c1ccc(Cl)cc1
3. Nc1c(C2=NCCCN2)cnn1-c1ccc(Cl)c(Cl)c1
4. Nc1c(C2=NCCN2)cnn1-c1ccc(Cl)c(Cl)c1
5. COc1ccc(-n2ncc(C3=NCCN3)c2N)cc1

Response given:
1: > 100 µM; 2: 84.2 µM; 3: > 100 µM; 4: 28.3 µM; 5: > 100 µM

###

tested on: Trypanosoma cruzi; assay: Trypanocidal activity against Trypanosoma cruzi Y strain bloodstream trypomastigotes isolated from infected Swiss webster mouse cardiac cells assessed as reduction in parasite viability after 24 hrs by Celltiter-Glo assay; format: functional, organism-based
For each entry below, report its IC90 value.

Challenge: Report IC90 for "Nc1c(C2=NCCCN2)cnn1-c1ccc(F)cc1" tested on Trypanosoma cruzi.
Response given: > 100 µM

Provide IC90 for all items below, preserving their order.
1. Nc1c(C2=NCCCN2)cnn1-c1ccc(Br)cc1
2. Nc1c(C2=NCCCN2)cnn1-c1ccccc1
3. Nc1c(C2=NCCCN2)cnn1-c1ccc(Cl)cc1
4. Nc1c(C2=NCCN2)cnn1-c1ccc(Cl)c(Cl)c1

Response given:
1: > 100 µM; 2: > 100 µM; 3: > 100 µM; 4: > 100 µM

Challenge: Report IC90 for "Nc1c(C2=NCCN2)cnn1-c1cc(Cl)cc(Cl)c1" tested on Trypanosoma cruzi.
Response given: > 100 µM

###

For each entry below, report its selectivity ratio value.
experiment: Selectivity index, ratio of CC50 for African green monkey Vero cells to IC50 for luciferase expressing Trypanosoma cruzi Dm28c trypomastigotes isolated from infected Vero cells; assay type: toxicity; conditions: read-out: Ratio CC50/IC50
One number for each entry.

Challenge: Can you share its selectivity ratio? I mean this molecule: "Nc1c(C2=NCCN2)cnn1-c1cc(Cl)cc(Cl)c1"
Response given: 27.1

Challenge: Can you share its selectivity ratio? I mean this molecule: "Nc1c(C2=NCCN2)cnn1-c1ccc(Cl)c(Cl)c1"
Response given: 23.3

Please turn your attention to the following entry.
Challenge: Can you share its selectivity ratio? I mean this molecule: "Nc1c(C2=NCCN2)cnn1-c1cccc(Cl)c1"
Response given: 9.4

###

For each entry below, report its IC50 value.
target: Cruzipain (Trypanosoma cruzi, UniProt P25779); assay: Inhibition of Trypanosoma cruzi cruzipain assessed as reduction in enzymatic activity using Z-FR-AMC fluorogenic peptide substrate incubated for 45 mins by spectrophotometry analysis
Sequence (P25779 whole entry): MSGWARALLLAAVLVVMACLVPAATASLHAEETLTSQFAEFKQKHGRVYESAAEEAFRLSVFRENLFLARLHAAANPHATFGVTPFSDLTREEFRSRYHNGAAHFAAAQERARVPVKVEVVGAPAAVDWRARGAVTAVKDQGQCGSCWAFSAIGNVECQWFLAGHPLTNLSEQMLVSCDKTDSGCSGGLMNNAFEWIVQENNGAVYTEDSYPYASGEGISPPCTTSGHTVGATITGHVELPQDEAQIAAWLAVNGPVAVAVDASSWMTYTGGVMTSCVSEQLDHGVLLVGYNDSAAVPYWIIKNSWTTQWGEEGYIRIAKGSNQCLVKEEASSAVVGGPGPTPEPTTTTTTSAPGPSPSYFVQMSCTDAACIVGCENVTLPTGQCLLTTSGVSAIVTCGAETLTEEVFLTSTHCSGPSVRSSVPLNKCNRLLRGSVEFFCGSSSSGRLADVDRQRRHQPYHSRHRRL
Answers are plain numbers, in µM.

Challenge: Can you share its IC50? I mean this molecule: "Nc1c(C2=NCCN2)cnn1-c1cc(Cl)cc(Cl)c1"
Response given: 24

Please turn your attention to the following entry.
Challenge: Can you share its IC50? I mean this molecule: "Nc1c(C2=NCCN2)cnn1-c1ccc(Cl)c(Cl)c1"
Response given: 180

###

assay: Cytotoxicity against mouse cardiomyocytes infected with intracellular amastigote stage of Trypanosoma cruzi Y strain assessed as reduction in cardiomyocyte viability after 72 hrs by Celltiter-Glo assay; assay type: cell-based, Cardiac Muscle Cell
READOUT KIND: CC50 at 72 h (µM)
Numbers only, in µM.

Challenge: Can you share its CC50 at 72 h? I mean this molecule: "Nc1c(C2=NCCN2)cnn1-c1cc(Cl)cc(Cl)c1"
Response given: 379

Please turn your attention to the following entry.
Challenge: Can you share its CC50 at 72 h? I mean this molecule: "Nc1c(C2=NCCN2)cnn1-c1ccc(Cl)c(Cl)c1"
Response given: 412
